parameter_measured: log10 vapour pressure (mmHg)
Lab note: record just the number, no unit beside it.

For the molecule C[C@@H]1CCCCN1 , report log10 vapour pressure (mmHg). 1.29

For the molecule CCOC(=O)C=[N+]=[N-] , report log10 vapour pressure (mmHg). 0.447

For the molecule CCOCCOCC , report log10 vapour pressure (mmHg). 1.53

For the molecule C1=CCC2CC2C1 (centres undefined) , report log10 vapour pressure (mmHg). 1.36

For the molecule CC[C@H]1CC[C@H](C)NC1 , report log10 vapour pressure (mmHg). 0.458

For the molecule O=C(O)CO , report log10 vapour pressure (mmHg). -1.7

For the molecule CC1(C)CNC(=NN=C(/C=C/c2ccc(C(F)(F)F)cc2)/C=C/c2ccc(C(F)(F)F)cc2)NC1 , report log10 vapour pressure (mmHg). -7.69

For the molecule Cn1ccc(=O)n(C)c1=O , report log10 vapour pressure (mmHg). -2.26

For the molecule CCCCCCCCCCCCCCCCCCCCC , report log10 vapour pressure (mmHg). -4.06

---

Kindly supply the reported melting point values for the records listed here.
Provide only the numeric value, understood in °C.

For the molecule CCCCCCCCCCCCNC(=O)C[N+](C)(C)Cc1ccccc1.[Cl-] , report melting point. 148

For the molecule CCCC(=O)CCC , report melting point. -33

For the molecule Ic1ccc(I)cc1 , report melting point. 132

For the molecule O=C(CCCN1CCC(O)(c2ccc(Cl)cc2)CC1)c1ccc(F)cc1 , report melting point. 152

For the molecule Nc1cc([N+](=O)[O-])ccc1O , report melting point. 144

For the molecule Cl.N=C(N)SCc1ccc(Cl)cc1 , report melting point. 197

For the molecule COC(=O)C1(S(=O)(=O)c2ccc(Br)cc2)CCCC1 , report melting point. 104

For the molecule c1ccc2c(c1)cnc1ccccc12 , report melting point. 107

---

# measurement_setup: fish
parameter_measured: log10 biotransformation half-life (days)
Lab note: record just the number, no unit beside it.

For the compound Nc1cc(Cl)ccc1Cl , report log10 biotransformation half-life (days). -1.13

For the compound Clc1cc(Cl)cc(-c2ccccc2)c1 , report log10 biotransformation half-life (days). 1.11

For the compound FC(F)(F)c1ccc(Cl)cc1Cl , report log10 biotransformation half-life (days). 1.81

For the compound Clc1cc(Cl)c(Cl)cc1Cl , report log10 biotransformation half-life (days). 1.79

For the compound N#Cc1nn(-c2c(Cl)cc(C(F)(F)F)cc2Cl)c(N)c1S(=O)C(F)(F)F (centres undefined) , report log10 biotransformation half-life (days). -0.21

For the compound COP(=S)(OC)Oc1ccc(S(C)=O)c(C)c1 (centres undefined) , report log10 biotransformation half-life (days). -0.38

For the compound Clc1cc(Cl)cc(Cl)c1 , report log10 biotransformation half-life (days). 1.19

For the compound CN(C)c1ccc(Cc2ccc(N(C)C)cc2)cc1 , report log10 biotransformation half-life (days). -0.04

For the compound Cc1c(Cl)c(Cl)c(C)c(Cl)c1Cl , report log10 biotransformation half-life (days). 1.12

For the compound COP(=S)(Oc1cc(Cl)c(Br)cc1Cl)c1ccccc1 (centres undefined) , report log10 biotransformation half-life (days). 1.26

For the compound C1=CCCC=CCCC=CCC1 , report log10 biotransformation half-life (days). 1.74

For the compound Cc1ccc(C)c(N)c1 , report log10 biotransformation half-life (days). -0.99

For the compound Brc1cc(Br)c(-c2ccccc2)c(Br)c1 , report log10 biotransformation half-life (days). 1.25

For the compound Clc1cc(Cl)c(Cl)c(-c2cc(Cl)c(Cl)cc2Cl)c1 , report log10 biotransformation half-life (days). 2.4

---

Assign class by log10 vapour pressure (mmHg): not lower than -1 means satisfied; lower than -1 means not satisfied.

Check this compound for log10 vapour pressure (mmHg) at or above -1: Cc1ccc2cc3c(ccc4ccccc43)c3c2c1CC3 not satisfied

Check this compound for log10 vapour pressure (mmHg) at or above -1: CCCCCCCCCCCCO not satisfied

Check this compound for log10 vapour pressure (mmHg) at or above -1: Cc1c2ccccc2cc2ccccc12 not satisfied

Check this compound for log10 vapour pressure (mmHg) at or above -1: Clc1ccc(Cl)c(Cl)c1Cl not satisfied

Check this compound for log10 vapour pressure (mmHg) at or above -1: O=C(O)CCc1ccccc1 not satisfied

Check this compound for log10 vapour pressure (mmHg) at or above -1: CCOC(=O)Nc1cccc(OC(=O)Nc2ccccc2)c1 not satisfied

Check this compound for log10 vapour pressure (mmHg) at or above -1: ClC(Cl)(Cl)Cl satisfied

Check this compound for log10 vapour pressure (mmHg) at or above -1: COC(=O)OC satisfied

Check this compound for log10 vapour pressure (mmHg) at or above -1: CC#CCCCCC satisfied

Check this compound for log10 vapour pressure (mmHg) at or above -1: CC1(C)OC(c2ccco2)CN1C(=O)C(Cl)Cl (configuration not stated) not satisfied

Check this compound for log10 vapour pressure (mmHg) at or above -1: Clc1cc2c(cc1Cl)Oc1cc(Cl)c(Cl)cc1O2 not satisfied

Check this compound for log10 vapour pressure (mmHg) at or above -1: CC[C@H](C)C(C)(C)C satisfied

Check this compound for log10 vapour pressure (mmHg) at or above -1: COC satisfied

Check this compound for log10 vapour pressure (mmHg) at or above -1: c1ccc2c(c1)ccc1ccccc12 not satisfied

Check this compound for log10 vapour pressure (mmHg) at or above -1: CCC1CCC(C)C1 (configuration not stated) satisfied

Check this compound for log10 vapour pressure (mmHg) at or above -1: CCCCCCCI satisfied

Check this compound for log10 vapour pressure (mmHg) at or above -1: C=CC(=O)OC satisfied

---

In plain terms, low boiling point, meaning strictly below 200 °C, gives Fulfilled, and everything else gives Not fulfilled.

Threshold test, boiling point < 200 °C: CCCCCS Fulfilled

Threshold test, boiling point < 200 °C: ClC(Cl)=C(c1ccc(Cl)cc1)c1ccc(Cl)cc1 Not fulfilled

Threshold test, boiling point < 200 °C: CCCCCCCC(=O)CCCCCCC Not fulfilled

Threshold test, boiling point < 200 °C: c1ccc(-c2c3ccccc3nc3ccccc23)cc1 Not fulfilled

Threshold test, boiling point < 200 °C: O=C(Cl)c1ccc(Cl)c(Cl)c1 Not fulfilled

Threshold test, boiling point < 200 °C: CCCCCCC(C)(C)C Fulfilled

Threshold test, boiling point < 200 °C: CC(Cl)Cl Fulfilled

Threshold test, boiling point < 200 °C: CC=Cc1ccc(O)c(OC)c1 Not fulfilled

---

Kindly supply the reported log10 vapour pressure (mmHg) values for the records listed here.
Lab note: record just the number, no unit beside it.

For the compound CC(C)OP(=O)(OC(C)C)SCc1ccccc1 , report log10 vapour pressure (mmHg). -4.39

For the compound C[Si](C)(C)O[Si](C)(C)O[Si](C)(C)O[Si](C)(C)O[Si](C)(C)O[Si](C)(C)C , report log10 vapour pressure (mmHg). -1.53

For the compound O=S1OCC2C(CO1)C1(Cl)C(Cl)=C(Cl)C2(Cl)C1(Cl)Cl (stereo not drawn) , report log10 vapour pressure (mmHg). -6.17

For the compound COc1cccc(N)c1 , report log10 vapour pressure (mmHg). -1.12

For the compound O=C(O)c1cccc(Cl)c1Cl , report log10 vapour pressure (mmHg). -3.64

For the compound Clc1ccc2c(Cl)cc(Cl)c(Cl)c2c1 , report log10 vapour pressure (mmHg). -5.07

For the compound O=C(O)Cc1ccccc1 , report log10 vapour pressure (mmHg). -2.42

For the compound C , report log10 vapour pressure (mmHg). 5.67

For the compound ClC(Cl)=C(c1ccc(Cl)cc1)c1ccc(Cl)cc1 , report log10 vapour pressure (mmHg). -5.22

For the compound CN(c1c(Br)cc(Br)cc1Br)c1c([N+](=O)[O-])cc([N+](=O)[O-])cc1C(F)(F)F , report log10 vapour pressure (mmHg). -7.01

For the compound O=c1oc2ccccc2c(O)c1C1CCCc2ccccc21 (stereo not drawn) , report log10 vapour pressure (mmHg). -10.2

For the compound Clc1ccc2c(Cl)c(Cl)c(Cl)c(Cl)c2c1 , report log10 vapour pressure (mmHg). -5.96

For the compound C=C(C)CCC , report log10 vapour pressure (mmHg). 2.29

---

Kindly supply the reported log10 vapour pressure (mmHg) values for the records listed here.
Lab note: record just the number, no unit beside it.

For the compound CCNS(=O)(=O)C(F)(F)C(F)(F)C(F)(F)C(F)(F)C(F)(F)C(F)(F)C(F)(F)C(F)(F)F , report log10 vapour pressure (mmHg). -6.37

For the compound Clc1ccc(C(c2ccccc2Cl)C(Cl)Cl)cc1 (stereo not drawn) , report log10 vapour pressure (mmHg). -5.71

For the compound O=C(O)C(Cl)(Cl)Cl , report log10 vapour pressure (mmHg). -1.22

For the compound CCCCCCCCCC(C)O (stereo not drawn) , report log10 vapour pressure (mmHg). -1.48

For the compound ClCCCCl , report log10 vapour pressure (mmHg). 1.26

For the compound CCC(C)(C)OC , report log10 vapour pressure (mmHg). 1.88

For the compound CCCCOC(=O)C1=CC(=O)CC(C)(C)O1 , report log10 vapour pressure (mmHg). -3.52

For the compound CSSC , report log10 vapour pressure (mmHg). 1.46
